Reference for the values: ChEMBL document CHEMBL3124843

# Tested on: K562
# protocol-text: Cytostatic activity against paclitaxel-resistant human K562 cells after 72 hrs by MTT assay
# Assay type: functional, cell-based
# conditions-used: K562, 72 h
quantity-kind: IC50 (µM)
Express your answer in µM, writing the number without its unit.

Here's what some known entries look like.
In [3]: df
Out[3]:
                           smiles_structure  meas_value
0  Cc1ncnc2c1c(Br)cn2[C@@H]1O[C@H](CO)[C@@H](O)[C@H]1O        15.8
1  Cc1nc(N)c2c(-c3cc4ccccc4o3)cn([C@@H]3O[C@H](CO)[C@@H](O)[C@H]3O)c2n1        4.99
2  CSc1ncnc2c1c(-c1ccco1)cn2[C@@H]1O[C@H](CO)[C@@H](O)[C@H]1O        0.21
3  C#Cc1cn([C@@H]2O[C@H](CO)[C@@H](O)[C@H]2O)c2ncnc(OC)c12        0.38
4  C#Cc1cn([C@@H]2O[C@H](CO)[C@@H](O)[C@H]2O)c2ncnc(NC)c12        1.38
5  C#Cc1cn([C@@H]2O[C@H](CO)[C@@H](O)[C@H]2O)c2ncnc(N(C)C)c12        0.26
6  Cc1nc(N)c2c(I)cn([C@@H]3O[C@H](CO)[C@@H](O)[C@H]3O)c2n1        1.11
7  COc1ncnc2c1c(-c1ccsc1)cn2[C@@H]1O[C@H](CO)[C@@H](O)[C@H]1O        3.45
8  Nc1nc2c(c(-c3ccoc3)cn2[C@@H]2O[C@H](CO)[C@@H](O)[C@H]2O)c(=O)[nH]1        12.5
9  COc1ncnc2c1c(I)cn2[C@@H]1O[C@H](CO)[C@@H](O)[C@H]1O        14.8

In: K562 / IC50 / "COc1ncnc2c1c(-c1cccs1)cn2[C@@H]1O[C@H](CO)[C@@H](O)[C@H]1O" : value?
Out: 6.2

In: Next entry: "Cc1ncnc2c1c(-c1ccco1)cn2[C@@H]1O[C@H](CO)[C@@H](O)[C@H]1O"
Out: 0.11

In: Next entry: "CN(C)c1ncnc2c1ccn2[C@@H]1O[C@H](CO)[C@@H](O)[C@H]1O"
Out: 0.89

In: Next entry: "COc1ncnc2c1c(-c1ccco1)cn2[C@@H]1O[C@H](CO)[C@@H](O)[C@H]1O"
Out: 0.38

In: Next entry: "O=c1[nH]cnc2c1c(-c1ccco1)cn2[C@@H]1O[C@H](CO)[C@@H](O)[C@H]1O"
Out: 17.8

###

# Test system: Hepatitis C virus
# protocol-text: Antiviral activity against Hepatitis C virus subtype 1b infected in human HuH7 cells
# Assay type: functional, organism-based, Hepacivirus hominis
# conditions-used: genotype 1b, Huh-7
pEC50: −log10 of the molar value.
Dear colleague, classification is by pEC50, with ranges listed here: low bracket = under 5, middle bracket = from 5 up to 6, high bracket = 6 and over

# count of solved cases: 8
>>> print(df.to_string())
                           smiles_structure     label_class
0  O=c1[nH]cnc2c1c(-c1cccs1)cn2[C@@H]1O[C@H](CO)[C@@H](O)[C@H]1O     low bracket
1  Cc1nc(N)c2ccn([C@@H]3O[C@H](CO)[C@@H](O)[C@H]3O)c2n1     low bracket
2  COc1nc(N)nc2c1c(-c1cccs1)cn2[C@@H]1O[C@H](CO)[C@@H](O)[C@H]1O  middle bracket
3  CNc1ncnc2c1c(-c1ccco1)cn2[C@@H]1O[C@H](CO)[C@@H](O)[C@H]1O    high bracket
4  Cc1ncnc2c1c(-c1ccoc1)cn2[C@@H]1O[C@H](CO)[C@@H](O)[C@H]1O  middle bracket
5  C#Cc1cn([C@@H]2O[C@H](CO)[C@@H](O)[C@H]2O)c2ncnc(NC)c12    high bracket
6  COc1ncnc2c1c(-c1ccco1)cn2[C@@H]1O[C@H](CO)[C@@H](O)[C@H]1O    high bracket
7  COc1nc(N)nc2c1c(-c1ccccc1)cn2[C@@H]1O[C@H](CO)[C@@H](O)[C@H]1O     low bracket

From here, focus on the item given below.
In: Which bin, given its pEC50, does "CSc1ncnc2c1c(-c1ccccc1)cn2[C@@H]1O[C@H](CO)[C@@H](O)[C@H]1O" occupy?
Out: low bracket
